Target: Tyk2 kinase activity on STAT4 in NK92 cells (Homo sapiens, UniProt P29597)
Sequence (P29597 whole entry): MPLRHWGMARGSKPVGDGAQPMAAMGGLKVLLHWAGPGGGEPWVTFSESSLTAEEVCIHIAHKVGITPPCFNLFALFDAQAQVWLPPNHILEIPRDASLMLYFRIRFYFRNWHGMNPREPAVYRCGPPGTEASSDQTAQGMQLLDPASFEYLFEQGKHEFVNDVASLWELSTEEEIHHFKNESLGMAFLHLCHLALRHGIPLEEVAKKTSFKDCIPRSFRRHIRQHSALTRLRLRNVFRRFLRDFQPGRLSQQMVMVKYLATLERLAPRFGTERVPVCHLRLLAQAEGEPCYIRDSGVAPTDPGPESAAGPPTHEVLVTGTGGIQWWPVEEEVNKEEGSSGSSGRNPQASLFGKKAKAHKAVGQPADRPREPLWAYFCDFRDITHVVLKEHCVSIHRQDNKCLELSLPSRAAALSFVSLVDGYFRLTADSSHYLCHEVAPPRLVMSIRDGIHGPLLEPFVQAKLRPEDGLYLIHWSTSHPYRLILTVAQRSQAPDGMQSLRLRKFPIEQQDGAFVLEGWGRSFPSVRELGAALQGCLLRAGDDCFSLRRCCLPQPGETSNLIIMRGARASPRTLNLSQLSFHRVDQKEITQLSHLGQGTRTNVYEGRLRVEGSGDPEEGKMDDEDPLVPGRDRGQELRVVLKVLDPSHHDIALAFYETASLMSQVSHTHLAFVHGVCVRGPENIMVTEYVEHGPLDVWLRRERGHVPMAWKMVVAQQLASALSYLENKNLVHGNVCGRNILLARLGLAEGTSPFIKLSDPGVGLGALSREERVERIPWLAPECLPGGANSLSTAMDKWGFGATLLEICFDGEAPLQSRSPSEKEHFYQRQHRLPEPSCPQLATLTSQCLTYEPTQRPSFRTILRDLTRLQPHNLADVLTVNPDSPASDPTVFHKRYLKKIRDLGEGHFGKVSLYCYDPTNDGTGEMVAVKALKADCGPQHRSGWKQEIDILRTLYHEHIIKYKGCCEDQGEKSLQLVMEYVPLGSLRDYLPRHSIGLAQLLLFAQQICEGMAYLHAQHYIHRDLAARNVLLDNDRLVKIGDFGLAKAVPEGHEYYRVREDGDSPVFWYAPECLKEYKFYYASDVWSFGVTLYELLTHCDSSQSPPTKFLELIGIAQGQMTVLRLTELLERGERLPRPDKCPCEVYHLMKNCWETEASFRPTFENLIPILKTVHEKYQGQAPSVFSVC
Experiment: pSTAT4 cell assay (MSD; NK92 cells, 30 ng/mL IL2 stimulation)
Details: 30 ng/mL IL2, 15 minutes
recordedMetric: IC50

Sample records with IC50:
{"sampleSmiles": "C[C@@H]1CN(c2c[nH]c3ncc(-c4cnn(C)c4)cc23)C(=O)[C@]1(C#N)C1CC1", "IC50": "50 to 100 nM"}
{"sampleSmiles": "C[C@@H]1CN(c2nc(-c3cnn(C)c3)cn3ncc(Cl)c23)C(=O)[C@]1(C#N)C1CC1", "IC50": "> 100 nM"}
{"sampleSmiles": "C[C@@H]1CN(c2nc(-c3cnn([C@H]4C[C@H](C#N)C4)c3)cn3ncc(F)c23)C(=O)[C@]1(C#N)C1CC1", "IC50": "20 to 50 nM"}
{"sampleSmiles": "C[C@@H]1CN(c2nc(-c3cnn(C4CCOCC4)c3)cn3nccc23)C(=O)[C@]1(C#N)C1CC1", "IC50": "20 to 50 nM"}
{"sampleSmiles": "C[C@@H]1CN(c2ncnc3[nH]c(-c4cnn(C)c4)cc23)C(=O)[C@]1(C#N)C1CC1", "IC50": "> 100 nM"}

I have this compound here, C[C@@H]1CN(c2nc(-c3cnn(C45CC(C4)C5)c3)cn3ncc(F)c23)C(=O)[C@]1(C#N)C1CC1 , and I need its recorded IC50.
50 to 100 nM

I have this compound here, C[C@@H]1CN(c2ccnn3cc(-c4cnn(CC5(C#N)CC5)c4)cc23)C(=O)[C@]1(C#N)C1CC1 , and I need its recorded IC50.
50 to 100 nM

====

Target: human JAK2 kinase domain (JH1) (Homo sapiens, UniProt O60674)
Construct: recombinantly generated catalytic kinase (also known as JH1) domain of human JAK1, JAK2, JAK3 and TYK2
Sequence (O60674 849-1124 limits assumed): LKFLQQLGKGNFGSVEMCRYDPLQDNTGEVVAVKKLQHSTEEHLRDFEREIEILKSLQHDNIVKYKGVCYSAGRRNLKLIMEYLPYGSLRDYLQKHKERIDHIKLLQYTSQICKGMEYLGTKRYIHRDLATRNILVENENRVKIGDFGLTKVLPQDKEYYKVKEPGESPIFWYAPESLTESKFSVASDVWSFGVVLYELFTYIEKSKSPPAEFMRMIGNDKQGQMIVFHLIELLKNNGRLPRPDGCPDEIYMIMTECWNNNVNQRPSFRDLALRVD
Experiment: JH1 biochemical assay for JAK2 (ADP-Glo kinase assay, recombinant JH1 catalytic domain, JAK3-974 peptide, 15 μM ATP)
Settings: JH1 kinase domain, ADP-Glo
Where a name gives a salt, the structure may show the parent alone.
# maps each entry to its IC50

Sample records with IC50:
{"compound": "C[C@@H]1CN(c2nc(-c3cnc4c(c3)CCN4)cn3nccc23)C(=O)[C@]1(C#N)C1CC1 [Example 215]", "recordedResult": "< 100 nM"}
{"compound": "Cn1cc(-c2cc3c(N4CC[C@H](C5CC5)C4=O)ccnn3c2)cn1 (single isomer, unassigned) [Example 36]", "recordedResult": "5000 to 10000 nM"}

I have this compound here, COc1ccc(-c2cc3c(N4C[C@@H](C)[C@@](C#N)(C5CC5)C4=O)ccnn3c2)nc1 [Example 145, trifluoroacetate] , and I need its recorded IC50.
100 to 1000 nM

I have this compound here, COc1ncc(-c2cc3c(N4C[C@@H](C)[C@@](C#N)(C5CC5)C4=O)ccnn3c2)cc1C#N [Example 85] , and I need its recorded IC50.
1000 to 5000 nM

====

Target: JAK2 kinase activity on STAT5 in TF1 cells (Homo sapiens)
Sequence (O60674 whole entry): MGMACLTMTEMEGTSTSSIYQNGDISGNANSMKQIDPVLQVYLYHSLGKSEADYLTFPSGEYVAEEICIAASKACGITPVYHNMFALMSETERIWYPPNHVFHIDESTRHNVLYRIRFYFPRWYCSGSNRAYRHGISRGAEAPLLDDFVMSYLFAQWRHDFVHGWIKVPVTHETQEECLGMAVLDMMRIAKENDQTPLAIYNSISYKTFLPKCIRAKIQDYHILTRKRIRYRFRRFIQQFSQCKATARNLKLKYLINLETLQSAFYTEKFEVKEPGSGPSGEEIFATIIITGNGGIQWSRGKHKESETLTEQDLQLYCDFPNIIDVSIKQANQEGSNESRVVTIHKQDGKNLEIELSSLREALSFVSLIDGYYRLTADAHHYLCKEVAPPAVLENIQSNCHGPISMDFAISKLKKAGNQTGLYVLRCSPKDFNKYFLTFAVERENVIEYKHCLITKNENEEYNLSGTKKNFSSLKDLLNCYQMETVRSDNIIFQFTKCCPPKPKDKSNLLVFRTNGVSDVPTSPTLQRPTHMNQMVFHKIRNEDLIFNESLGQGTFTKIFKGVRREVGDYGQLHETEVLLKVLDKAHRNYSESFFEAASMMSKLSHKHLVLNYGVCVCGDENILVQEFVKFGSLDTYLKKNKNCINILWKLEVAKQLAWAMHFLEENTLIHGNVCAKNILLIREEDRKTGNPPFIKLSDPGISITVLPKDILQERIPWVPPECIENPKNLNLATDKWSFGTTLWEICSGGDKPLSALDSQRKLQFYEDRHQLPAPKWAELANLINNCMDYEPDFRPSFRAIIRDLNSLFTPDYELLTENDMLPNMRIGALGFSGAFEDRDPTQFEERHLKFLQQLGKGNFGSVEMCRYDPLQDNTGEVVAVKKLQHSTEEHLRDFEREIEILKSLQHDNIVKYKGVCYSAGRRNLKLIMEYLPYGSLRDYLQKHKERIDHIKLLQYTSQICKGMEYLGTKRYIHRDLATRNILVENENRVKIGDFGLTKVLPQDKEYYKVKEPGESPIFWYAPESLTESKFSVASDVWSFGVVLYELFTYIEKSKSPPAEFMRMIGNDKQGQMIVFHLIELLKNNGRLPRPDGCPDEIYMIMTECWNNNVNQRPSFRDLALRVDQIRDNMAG
Assay: pSTAT5 cell assay (MSD; TF1 cells, 30 ng/mL IL-3 stimulation)
Conditions: 30 ng/mL IL-3, 15 minutes
# maps each entry to its IC50

Sample records with IC50:
{"molecule": "C[C@@H]1CN(c2ccnn3cc(-c4cnn5c4CCC5)cc23)C(=O)[C@]1(C#N)C1CC1 [Example 171]", "IC50": "> 10 µM"}
{"molecule": "C[C@@H]1CN(c2ccnn3cc(-c4cnn(C5COC5)c4)cc23)C(=O)[C@]1(C#N)C1CC1 [Example 97]", "IC50": "1 to 5 µM"}

Param readout= IC50; system= JAK2 kinase activity on STAT5 in TF1 cells (Homo sapiens); entry= C[C@@H]1CN(c2nc(-c3cnn([C@H]4CO[C@@H]4C)c3)cn3ncc(F)c23)C(=O)[C@]1(C#N)C1CC1 (relative stereo) [Example 306] ; returns value.
1 to 5 µM

Param readout= IC50; system= JAK2 kinase activity on STAT5 in TF1 cells (Homo sapiens); entry= C[C@@H]1CN(c2nc(-c3cnn([C@H]4C[C@@](C)(O)C4)c3)cn3ncc(F)c23)C(=O)[C@]1(C#N)C1CC1 [Example 301] ; returns value.
0.1 to 1 µM

====

Biological target: human JAK1 kinase domain (JH1) (Homo sapiens)
Construct: recombinantly generated catalytic kinase (also known as JH1) domain of human JAK1, JAK2, JAK3 and TYK2
Sequence (P23458 875-1153 limits assumed): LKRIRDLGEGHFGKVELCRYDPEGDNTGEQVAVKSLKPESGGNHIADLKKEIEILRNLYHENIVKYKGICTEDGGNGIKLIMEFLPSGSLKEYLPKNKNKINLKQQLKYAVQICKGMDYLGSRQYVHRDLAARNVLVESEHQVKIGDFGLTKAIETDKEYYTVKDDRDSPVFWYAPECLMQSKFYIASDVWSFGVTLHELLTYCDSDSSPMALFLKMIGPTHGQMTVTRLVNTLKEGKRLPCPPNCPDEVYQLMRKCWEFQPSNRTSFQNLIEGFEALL
Assay: JH1 biochemical assay for JAK1 (ADP-Glo kinase assay, recombinant JH1 catalytic domain, JAK3-342 peptide, 35 μM ATP)
Conditions: JH1 kinase domain, ADP-Glo
Protocol: Compounds of the disclosure were assessed for their ability to inhibit TYK2, JAK1, JAK2, and JAK3 activity. The inhibitory properties of the compounds of the disclosure described herein can be evidenced by testing in any one of the following protocols. The kinase activity of recombinantly generated catalytic kinase (also known as JH1) domain of human JAK1, JAK2, JAK3 and TYK2 were evaluated in a plate-based assay using the ADP-Glo™ Kinase Assay platform. […]
Where a name gives a salt, the structure may show the parent alone.
# maps each entry to its IC50

Sample records with IC50:
{"compound": "Cc1ccc(O)c(-c2cc3c(N4C[C@@H](C)[C@@](C#N)(C5CC5)C4=O)ccnn3c2)n1 [Example 140, trifluoroacetate]", "recordedResult": "1 to 5 µM"}
{"compound": "CCc1ncccc1-c1cc2c(N3C[C@@H](C)[C@@](C#N)(C4CC4)C3=O)ccnn2c1 [Example 178, trifluoroacetate]", "recordedResult": "5 to 10 µM"}
{"compound": "C[C@@H]1CN(c2ccnn3cc(-c4ncccc4F)cc23)C(=O)[C@]1(C#N)C1CC1 [Example 138, trifluoroacetate]", "recordedResult": "0.1 to 1 µM"}
{"compound": "C[C@@H]1CN(c2ccnn3cc(-c4ncn(C)n4)cc23)C(=O)[C@]1(C#N)C1CC1 [Example 115, trifluoroacetate]", "recordedResult": "> 10 µM"}
{"compound": "C[C@@H]1CN(c2ccnn3cc(-c4cnn(-c5cccnc5)c4)cc23)C(=O)[C@]1(C#N)C1CC1 [Example 159]", "recordedResult": "0.1 to 1 µM"}
{"compound": "C[C@@H]1CN(c2ccnn3cc(-c4ncc(C#N)s4)cc23)C(=O)[C@]1(C#N)C1CC1 [Example 117, trifluoroacetate]", "recordedResult": "1 to 5 µM"}

As a next step, examine the compound that follows.
Param readout= IC50; system= human JAK1 kinase domain (JH1) (Homo sapiens); entry= C[C@@H]1CN(c2ccnn3cc(-c4cnn(C5CCCC5)c4)cc23)C(=O)[C@]1(C#N)C1CC1 [Example 170] ; returns value.
< 0.1 µM

====

# maps each entry to its pIC50
Target: JAK1 kinase activity on STAT3 in TF1 cells (Homo sapiens, UniProt P23458)
Sequence (P23458 whole entry): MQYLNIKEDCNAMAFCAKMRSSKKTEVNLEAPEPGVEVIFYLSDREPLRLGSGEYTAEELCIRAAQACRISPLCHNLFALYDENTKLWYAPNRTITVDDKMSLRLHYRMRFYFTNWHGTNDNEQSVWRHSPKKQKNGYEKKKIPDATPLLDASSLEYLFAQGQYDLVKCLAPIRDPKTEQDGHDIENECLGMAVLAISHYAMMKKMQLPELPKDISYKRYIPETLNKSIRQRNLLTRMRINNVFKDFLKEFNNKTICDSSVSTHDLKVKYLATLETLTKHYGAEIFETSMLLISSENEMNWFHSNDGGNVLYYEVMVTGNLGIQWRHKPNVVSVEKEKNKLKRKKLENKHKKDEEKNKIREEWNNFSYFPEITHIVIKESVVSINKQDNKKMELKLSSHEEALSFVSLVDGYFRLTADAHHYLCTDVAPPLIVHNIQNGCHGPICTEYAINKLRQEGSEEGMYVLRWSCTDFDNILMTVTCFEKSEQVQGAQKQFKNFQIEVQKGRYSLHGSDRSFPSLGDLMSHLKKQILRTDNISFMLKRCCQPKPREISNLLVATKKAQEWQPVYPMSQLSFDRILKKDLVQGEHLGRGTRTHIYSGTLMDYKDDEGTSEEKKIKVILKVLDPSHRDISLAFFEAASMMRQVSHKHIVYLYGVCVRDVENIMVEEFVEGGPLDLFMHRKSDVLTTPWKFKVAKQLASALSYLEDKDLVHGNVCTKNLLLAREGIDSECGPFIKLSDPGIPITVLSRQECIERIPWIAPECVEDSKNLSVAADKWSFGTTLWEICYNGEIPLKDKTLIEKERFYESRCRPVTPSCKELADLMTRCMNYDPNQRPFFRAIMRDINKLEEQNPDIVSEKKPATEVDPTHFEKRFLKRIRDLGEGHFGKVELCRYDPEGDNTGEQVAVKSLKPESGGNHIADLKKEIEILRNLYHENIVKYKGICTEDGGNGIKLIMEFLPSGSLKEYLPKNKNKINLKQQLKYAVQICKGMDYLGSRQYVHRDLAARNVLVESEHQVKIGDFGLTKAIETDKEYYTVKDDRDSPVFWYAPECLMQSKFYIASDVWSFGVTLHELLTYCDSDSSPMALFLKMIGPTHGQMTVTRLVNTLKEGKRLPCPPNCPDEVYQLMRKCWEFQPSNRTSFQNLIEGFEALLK
Experiment: pSTAT3 cell assay (MSD; TF1 cells, 30 ng/mL IL-6 stimulation)
Conditions: 30 ng/mL IL-6, 15 minutes
pIC50: −log10 of the molar value.

{"compound": "C[C@@H]1CN(c2ccnn3cc(-c4cnn(C)c4)cc23)C(=O)[C@]1(C#N)C1CC1", "recordedMetric": "pIC50", "recordedResult": "5.30 to 6.00"}

I have this compound here, C[C@@H]1CN(c2nc(-c3ccc(=O)n(C(F)F)c3)cn3nccc23)C(=O)[C@]1(C#N)C1CC1 , and I need its recorded pIC50.
5.30 to 6.00

I have this compound here, C[C@@H]1CN(c2ccnn3cc(-c4cnn(CC#N)c4)cc23)C(=O)[C@]1(C#N)C1CC1 , and I need its recorded pIC50.
5.30 to 6.00

I have this compound here, C[C@@H]1CN(c2ccnn3cc(-c4cnn(C5CN(C)C5)c4)cc23)C(=O)[C@]1(C#N)C1CC1 , and I need its recorded pIC50.
5.00 to 5.30

I have this compound here, C[C@@H]1CN(c2ccnn3cc(-c4cnc5[nH]ncc5c4)cc23)C(=O)[C@]1(C#N)C1CC1 , and I need its recorded pIC50.
5.30 to 6.00

I have this compound here, C[C@@H]1CN(c2ccnn3cc(-c4cnn([C@H]5C[C@H](C#N)C5)c4)cc23)C(=O)[C@]1(C#N)C1CC1 , and I need its recorded pIC50.
5.30 to 6.00

====

Molecular target: human TYK2 kinase domain (JH1) (Homo sapiens, UniProt P29597)
Construct: recombinantly generated catalytic kinase (also known as JH1) domain of human JAK1, JAK2, JAK3 and TYK2
Sequence (P29597 897-1176 limits assumed): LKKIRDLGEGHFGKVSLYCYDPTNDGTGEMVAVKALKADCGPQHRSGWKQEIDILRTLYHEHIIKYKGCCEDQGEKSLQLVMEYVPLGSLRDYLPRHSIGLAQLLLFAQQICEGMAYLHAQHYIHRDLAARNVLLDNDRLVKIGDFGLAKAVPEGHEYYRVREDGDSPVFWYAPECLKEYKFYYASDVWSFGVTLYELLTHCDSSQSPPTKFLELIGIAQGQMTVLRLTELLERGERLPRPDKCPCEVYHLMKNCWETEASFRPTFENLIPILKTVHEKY
Experiment: JH1 biochemical assay for TYK2 (ADP-Glo kinase assay, recombinant JH1 catalytic domain, JAK3-974 peptide, 10 μM ATP)
Conditions: TYK2 JH1, ADP-Glo
Procedure: Compounds of the disclosure were assessed for their ability to inhibit TYK2, JAK1, JAK2, and JAK3 activity. The inhibitory properties of the compounds of the disclosure described herein can be evidenced by testing in any one of the following protocols. The kinase activity of recombinantly generated catalytic kinase (also known as JH1) domain of human JAK1, JAK2, JAK3 and TYK2 were evaluated in a plate-based assay using the ADP-Glo™ Kinase Assay platform. […]
Structures can show the parent of a compound that is named as a salt.
# maps each entry to its IC50

{"compound": "C[C@@H]1CN(c2nc(-c3ccc(N(C)C(=O)OC(C)(C)C)nc3)cn3nccc23)C(=O)[C@]1(C#N)C1CC1 [Example 266, trifluoroacetate]", "system": "human TYK2 kinase domain (JH1) (Homo sapiens, UniProt P29597)", "IC50": "< 0.005 µM"}
{"compound": "C[C@@H]1CN(c2ccnn3cc(-n4ccccc4=O)cc23)C(=O)[C@]1(C#N)C1CC1", "system": "human TYK2 kinase domain (JH1) (Homo sapiens, UniProt P29597)", "IC50": "> 0.1 µM"}
{"compound": "C[C@@H]1CN(c2nc(-c3ccc(O)nc3)cn3nccc23)C(=O)[C@]1(C#N)C1CC1 [Example 267, trifluoroacetate]", "system": "human TYK2 kinase domain (JH1) (Homo sapiens, UniProt P29597)", "IC50": "< 0.005 µM"}

I have this compound here, Cc1ccn(-c2cc3c(N4C[C@@H](C)[C@@](C#N)(C5CC5)C4=O)ccnn3c2)n1 , and I need its recorded IC50.
0.02 to 0.05 µM

I have this compound here, C[C@@H]1CN(c2nc(-c3ccc(=O)n(C)c3)cn3nccc23)C(=O)[C@]1(C#N)C1CC1 , and I need its recorded IC50.
< 0.005 µM

I have this compound here, Cc1cc(-c2cn3nccc3c(N3C[C@@H](C)[C@@](C#N)(C4CC4)C3=O)n2)ccn1 [Example 241, trifluoroacetate] , and I need its recorded IC50.
0.05 to 0.1 µM

I have this compound here, C[C@@H]1CN(c2nn(-c3cnn(C)c3)c3cnccc23)C(=O)[C@]1(C#N)C1CC1 , and I need its recorded IC50.
0.005 to 0.02 µM

Source of measurements: patent US20260297085A1
